Assay: Metabolic stability and metabolite profile in mouse liver microsomes
Assay type: in vitro ADME
Conditions: mouse liver microsomes, substrate 5 µM; read-out: In vitro CLint
MEASUREMENT_TYPE: microsomal CLint at 5 µM (µL/min/mg)

> print(dat)
                                   compound          measurement.type  value.observed
1  FC1CCN(CCOc2ccc(C3CCC4(CC3)OOC3(OO4)C4CC5CC(C4)CC3C5)cc2)CC1 (stereo not shown)  microsomal CLint at 5 µM              17

====

# key: entry, value: clearance
Experiment: Rat PK iv 1 mg/kg (Chem Partners)
Settings: in vivo
MEASUREMENT_TYPE: clearance (mL/min/kg)

> print(dat)
                                   molecule  value.observed
1  FC1(F)CCN(CCOc2ccc(C3CCC4(CC3)OOC3(OO4)C4CC5CC(C4)CC3C5)cc2)CC1 (stereo not shown) [Compound 8]             1.3
2  c1cc(C2CCC3(CC2)OOC2(OO3)C3CC4CC(C3)CC2C4)ccc1OCCCN1CCOCC1 (stereo not shown) [Compound 5]             6.5
3  CS(=O)(=O)N1CCN(CCOc2ccc(C3CCC4(CC3)OOC3(OO4)C4CC5CC(C4)CC3C5)cc2)CC1 (stereo not shown) [Compound 6]             3.5
4  c1cc(C2CCC3(CC2)OOC2(OO3)C3CC4CC(C3)CC2C4)ccc1OCCN1CCOCC1 (stereo not shown) [Compound 4]             7.1

Data origin, for the record: paper PMC5458052
